# test_target: Peptide 1: Biotin-…-[Tyr(PC)]-acid
# Sequence (peptide, as listed by the source): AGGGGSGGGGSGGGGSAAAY
# run_description: scFv ELISA
Please respond with MET when measured OD450 is strictly beneath 1 OD450, and with NOT MET in all other cases.

Check out these entries, answers already filled in.
PcOxP_DB01_E08 (scFv, V domains shown, scFv in periplasmic extract) VH: EVQLLESGGGLVQPGGSLRLSCAASGDTFSDFYMEWVRQAPGKGLEWVAASRNKANAYTTEYADSVKGRFTISRDNSKNTLYLQMNSLRAEDTAVYYCARDYYGQSYWYFDVWGQGTLVTVSS VL: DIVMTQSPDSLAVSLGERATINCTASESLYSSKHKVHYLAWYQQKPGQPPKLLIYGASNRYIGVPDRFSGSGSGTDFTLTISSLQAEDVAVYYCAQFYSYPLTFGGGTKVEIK :: MET
PcOxP_DB04_B08 (scFv, V domains shown, scFv in periplasmic extract) VH: EVQLLESGGGLVQPGGSLRLSCAASGFTFSDDYMEWVRQAPGKGLEWVAASRNKANDYTTEYADSVKGRFTISRDNSKNTLYLQMNSLRAEDTAVYYCARDYYGSSYWYFDVWGQGTLVTVSS VL: DIQMTQSPSSLSASVGDRVTITCTASESLYSSKHKVHYLAWYQQKPGKAPKLLIYGLSNRYIGVPSRFSGSGSGTDFTLTISSLQPEDFATYYCAQFFSYPLTFGGGTKVEIK :: NOT MET
PcOxP_DB02_F09 (scFv, V domains shown, scFv in periplasmic extract) VH: EVQLLESGGGLVQPGGSLRLSCAASGFQFSDFYMEWVRQAPGKGLEWVAASRNKGNSYTTAYADSVKGRFTISRDNSKNTLYLQMNSLRAEDTAVYYCARDYYGSSYWYFDVWGQGTLVTVSS VL: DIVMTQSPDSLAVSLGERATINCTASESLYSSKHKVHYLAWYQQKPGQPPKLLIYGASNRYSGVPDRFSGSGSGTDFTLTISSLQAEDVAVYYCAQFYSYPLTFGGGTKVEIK :: MET
PcOxP_DB02_G07 (scFv, V domains shown, scFv in periplasmic extract) VH: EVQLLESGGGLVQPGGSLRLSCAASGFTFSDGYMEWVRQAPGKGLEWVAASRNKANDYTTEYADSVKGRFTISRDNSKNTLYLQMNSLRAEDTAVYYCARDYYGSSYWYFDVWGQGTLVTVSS VL: DIQMTQSPSSLSASVGDRVTITCTASESLYSSKHKVHYLAWYQQKPGKAPKLLIYGASNRYGGVPSRFSGSGSGTDFTLTISSLQPEDFATYYCAQFYSYPLTFGGGTKVEIK :: MET
PcOxP_DB02_B12 (scFv, V domains shown, scFv in periplasmic extract) VH: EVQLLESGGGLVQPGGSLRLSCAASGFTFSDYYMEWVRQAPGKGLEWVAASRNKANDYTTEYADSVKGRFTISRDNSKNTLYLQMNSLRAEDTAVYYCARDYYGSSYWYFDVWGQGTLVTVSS VL: DIQMTQSPSSLSASVGDRVTITCTASESLYSSKHKVHYLAWYQQKPGKAPKLLIYGQSNRYIGVPSRFSGSGSGTDFTLTISSLQPEDFATYYCAQFYSYPLTFGGGTKVEIK :: NOT MET
PcOxP_DB04_C08 (scFv, V domains shown, scFv in periplasmic extract) VH: EVQLLESGGGLVQPGGSLRLSCAASGETFSDFYMEWVRQAPGKGLEWVAASRNKANDYTTEYADSVKGRFTISRDNSKNTLYLQMNSLRAEDTAVYYCARDYYGSSYWYFDVWGQGTLVTVSS VL: DIQMTQSPSSLSASVGDRVTITCTASESLYSSKHGVHYLAWYQQKPGKAPKLLIYGASNRYIGVPSRFSGSGSGTDFTLTISSLQPEDFATYYCAQFYQYPLTFGGGTKVEIK :: MET

Qu. # check: OD450 < 1 OD450 for PcOxP_DB03_B12 (scFv, V domains shown, scFv in periplasmic extract) VH: EVQLLESGGGLVQPGGSLRLSCAASGFQFSDFYMEWVRQAPGKGLEWVAASRWKANDYTTEYADSVKGRFTISRDNSKNTLYLQMNSLRAEDTAVYYCARDYYGSSYWYFDVWGQGTLVTVSS VL: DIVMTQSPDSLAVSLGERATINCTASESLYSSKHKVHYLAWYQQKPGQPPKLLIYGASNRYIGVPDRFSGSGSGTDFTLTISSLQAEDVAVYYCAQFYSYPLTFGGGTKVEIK
Ans. NOT MET

Qu. # check: OD450 < 1 OD450 for PcOxP_DB04_A05 (scFv, V domains shown, scFv in periplasmic extract) VH: EVQLLESGGGLVQPGGSLRLSCAASGFTFSDFYIEWVRQAPGKGLEWVAASRNKANDYTTEYADSVKGRFTISRDNSKNTLYLQMNSLRAEDTAVYYCARDYYGSSYWYFDVWGQGTLVTVSS VL: DIVMTQSPDSLAVSLGERATINCTASESLYSSKHKVHYLAWYQQKPGQPPKLLIYGASNREIGVPDRFSGSGSGTDFTLTISSLQAEDVAVYYCAQFYSYPLTFGGGTKVEIK
Ans. MET

Qu. # check: OD450 < 1 OD450 for PcOxP_DB04_D10 (scFv, V domains shown, scFv in periplasmic extract) VH: EVQLLESGGGLVQPGGSLRLSCAASGFTGSDFYMEWVRQAPGKGLEWVAASRWKANDYTTEYADSVKGRFTISRDNSKNTLYLQMNSLRAEDTAVYYCARDYYGSSYWYFDVWGQGTLVTVSS VL: DIVMTQSPDSLAVSLGERATINCTASESLYSTKHKVHYLAWYQQKPGQPPKLLIYGASHRYIGVPDRFSGSGSGTDFTLTISSLQAEDVAVYYCAQFYQYPLTFGGGTKVEIK
Ans. NOT MET
